Form field: melting point (one value per entry).

Asked: Look up melting point: CC(C)(C)OC(=O)NC1Cc2ccccc2N(c2ccccc2)C1 (stereo unspecified)
Given back: 139 to 141 °C

---

measure: melting point

These solved cases illustrate the format of a correct answer.
[[record]]
compound = "Cc1cccc2c3c(n(Cc4ccc(F)cc4)c12)CCCC3=O"
measure = "melting point"
reported_result = "154 to 155 °C"

[[record]]
compound = "COCOc1c(NC(=O)N(CCCCCC(=O)O)c2ccccc2)cc(OC)cc1C(C)(C)C"
measure = "melting point"
reported_result = "109 to 111 °C"

[[record]]
compound = "COc1ccc(Oc2ccc(C#CC(C)N(O)C(N)=O)s2)cc1 (stereo not given)"
measure = "melting point"
reported_result = "137 to 138 °C"


Asked: Return reported melting point; argument: CC1(C)CNC(=Nc2ccccc2)S1
Given back: 153 to 155 °C

Asked: Need melting point of NC(=O)c1cc(C(=O)O)c(O)c2ncc(Cc3ccc(F)cc3)cc12 , thanks.
Given back: 265 to 266 °C

Asked: Give the measured melting point of CS(=O)(=O)C(=C1CN(C(c2ccccc2)c2ccccc2)C1)c1ccccc1O .
Given back: 196 °C

Asked: Any idea what melting point was measured for CC(C)CN(C(=O)N(CCCl)N=O)C1(O)C(OC2CCCCC2)OC(CO)C1O (stereo not given) ?
Given back: 70 to 72 °C

---

measure: melting point

Reference set (4 entries):
[[record]]
compound = "Cc1cc(C2=NOC(c3cc(Cl)cc(Cl)c3)(C(F)(F)F)C2)ccc1C(=O)NC1CSC1 (stereo not given)"
reported_result = "158 to 159 °C"

[[record]]
compound = "COCOc1cccc(Cn2nc(C(=O)OC)c3c2-c2ccc(OCc4cncnc4)cc2CC3)c1"
reported_result = "178 to 180 °C"

[[record]]
compound = "COC(=O)c1ccc(OC)c(C(C)=O)c1"
reported_result = "54 to 58 °C"

[[record]]
compound = "CCOC(=O)C1Cc2cc3c(-c4ccccc4F)noc3cc2O1 (stereo not given)"
reported_result = "115 to 116 °C"


Asked: Using the record for NS(=O)(=O)c1ccc(-c2noc(-c3cnn4c(C(F)F)cc(-c5ccc(C(F)(F)F)cc5)nc34)n2)cc1 , report its melting point.
Given back: 283 °C

Asked: Look up melting point: Cn1c(=O)ccc2cnc(NCc3ccccc3)nc21
Given back: 160 to 162 °C

Asked: Item COC(=O)CCCCCCCCCNS(=O)(=O)c1ccc(Cl)cc1 has what recorded melting point?
Given back: 68 to 70 °C

Asked: Entry CC1(C)Oc2ccc(OC(F)(F)F)cc2[C@@H](N2Cc3cccnc3C2=O)[C@@H]1O (relative stereo) has what melting point?
Given back: 248 to 250 °C

Asked: Form field: reported melting point of O=C(O)c1cnc2cc(O)cc(O)c2c1
Given back: > 260 °C

Asked: Entry CCOC(=O)C=Cc1ccn(C)c(=O)c1 has what melting point?
Given back: 126 to 127 °C

Asked: Query (compound): O=Cc1cc2ccc3ccc4ccccc4c3c2o1 ; field requested: melting point
Given back: 169 °C

Asked: Reported melting point for CC(=O)N1CCc2cc(C(=O)CCCN3CCC(c4noc5cc(F)ccc45)CC3)sc2C1 : what is it?
Given back: 145 to 147 °C

Asked: What value of measured melting point is listed for CN(C)Cc1nc(CSCCNc2ncc(CC3CCCO3)c(=O)[nH]2)cs1 (stereo not given) ?
Given back: 118 to 123 °C

Asked: Please report the recorded melting point for CCNc1ncnc2c1ncn2Cc1c(F)cccc1Cl .
Given back: 175 to 176 °C

Asked: Record request: melting point value, item CNC(=O)C(=NOC)c1cccc(Cl)c1COc1ccc(Sc2ccc(Cl)cc2)cn1
Given back: 116 to 118 °C

Asked: Endpoint output: melting point of COC(=O)CCCOc1ccc(C=O)cc1OC . Value?
Given back: 69 °C

Asked: melting point for CCNC(=O)c1ccc(N2CCN(Cc3cc4c(c(OC)c3)OC(C)C(=O)N4)CC2)c(Cl)c1 (stereo not given) ?
Given back: 119 to 121 °C

Asked: Using the record for COc1cc2ncnc(N3CCC(O)(CCN4C=CC(C)=NS4(=O)=O)CC3)c2cc1OC , report its melting point.
Given back: 203 to 204 °C

---

measure: melting point

[[record]]
compound = "C[C@H](Cn1ncnn1)n1cnc2cc3c(=O)n([C@H](C)Cn4ncnn4)cnc3cc2c1=O"
measure = "melting point"
reported_result = "255 to 256 °C"

[[record]]
compound = "COc1ccc(C2C(C(=O)/C=C/c3ccccc3)C(=O)CC(c3ccccc3)C2[N+](=O)[O-])cc1 (stereo unspecified)"
measure = "melting point"
reported_result = "108 to 110 °C"

[[record]]
compound = "Cc1cc(C(=O)CC(O)(c2cc(Cl)cc(Cl)c2)C(F)(F)F)ccc1C(=O)O (stereo unspecified)"
measure = "melting point"
reported_result = "114 to 115 °C"

[[record]]
compound = "O=C(CBr)c1ccc(Br)s1"
measure = "melting point"
reported_result = "79 °C"

[[record]]
compound = "CCCNC(=O)N1C2=NC(C)(C)N(CCC)C(=O)N2c2ccccc21"
measure = "melting point"
reported_result = "72 to 74 °C"

[[record]]
compound = "O=C1CCCc2nc3ccccc3c(NCCc3ccccc3)c21"
measure = "melting point"
reported_result = "129 to 132 °C"

[[record]]
compound = "CCc1cc2c(NCc3ccc4c(c3)OCO4)nc(Cl)nc2s1"
measure = "melting point"
reported_result = "148 °C"

[[record]]
compound = "CC(C)C(NC(=O)C(F)(F)F)C(=O)O (stereo unspecified)"
measure = "melting point"
reported_result = "88 to 89 °C"

[[record]]
compound = "Cc1c(-c2ccccc2)oc2cc(NC(=O)C(=O)O)ccc2c1=O"
measure = "melting point"
reported_result = "243 °C"

[[record]]
compound = "O=P1(C2CCCCC2)c2ccccc2CN1c1ccccc1 (stereo unspecified)"
measure = "melting point"
reported_result = "167 to 169 °C"


Shifting focus to the compound that follows.
Asked: Return reported melting point; argument: CNC(C(=O)O)c1ccc(Cl)cc1 (stereo unspecified)
Given back: 208 to 213 °C

---

Collected melting point values appear next to each entry.

Asked: For Cc1cc(C(C)(C)C)cc2c1OCC(/C=C/C=C/C=C/C(=O)O)=C2 , what is its reported melting point?
Given back: 225 to 227 °C

Asked: Look up melting point: Nc1ccc(S(=O)(=O)Nc2ccn(C3CCCCC3)c(=O)n2)cc1
Given back: 100 to 120 °C

Asked: Can you look up the measured melting point of Cc1cc(-c2ncn3c(C(F)(F)F)cc(-c4cccc(C(F)(F)F)c4)nc23)ccn1 for me?
Given back: 234 °C

Asked: Fill in the blank: the reported melting point of CCOC(=O)c1c(C)cc2nc(CO)n(-c3ccccc3Cl)c(=O)c2c1C is ____.
Given back: 151 to 152 °C

Asked: Consider the compound shown here: Nc1ccc(CN2CCN(Cc3ccc(N)cc3)C(=O)C2=O)cc1 What is its recorded melting point?
Given back: 193 to 194 °C

Asked: Give its melting point value. Item: Cc1ccc(NC(=O)Cc2ccccc2)cc1
Given back: 119 to 120 °C

Asked: Report melting point for O=C(Nc1ccncc1)c1cccc(-c2ccc3c(c2)C(Oc2ccc(Cl)cc2Cl)CC3)c1 (stereo unspecified) please.
Given back: 226 to 227 °C

Asked: // melting point lookup, key: CON=C(c1ncon1)c1ccccc1COc1ccc(Cl)cc1
Given back: 107 to 108 °C

Asked: Look at this compound and give its reported melting point. COCc1ccc(C[C@@H]2O[C@H](COC(C)=O)[C@@H](OC(C)=O)[C@H](OC(C)=O)[C@H]2OC(C)=O)cc1
Given back: 120 to 122 °C

Asked: Query: melting point; subject: CC(C)(C)OC(=O)N1CC=C(c2ncccc2N)CC1
Given back: 104 to 105 °C

---

measure: melting point

[[record]]
compound = "CCCN1C(=O)N2C[C@@H](Cc3ccccc3)N=C2c2[nH]c(C3(O)CCCC3)nc21"
reported_result = "110 to 115 °C"

[[record]]
compound = "CCCCCCCCCCCCCCCCCCOc1cc(OCc2ccccc2)cc(C(=O)O)c1"
reported_result = "97 to 99 °C"

[[record]]
compound = "CC(CO)C1CCC2C3CCC4=C(N)C(=O)CCC4(C)C3CCC12C (stereo not given)"
reported_result = "180 to 185 °C"

[[record]]
compound = "OCc1c(CO)c2sc3ccccc3n2c1-c1ccc(F)cc1"
reported_result = "155 to 156 °C"


# input for lookup
Asked: Item under review: NC(=O)N1CCCC2=C1CCc1cc(Cl)ccc12 . Reported melting point?
Given back: 169 to 171 °C

---

measure: melting point

Here is how some compounds turned out for melting point.
[[record]]
compound = "C[C@@H](c1ccc(-c2ccc(=O)n(C)c2)cc1)N1CC[C@](CC(C)(C)O)(c2ccccc2)OC1=O"
measure = "melting point"
reported_result = "180 to 181 °C"

[[record]]
compound = "O=Cc1ccc(OS(=O)(=O)C(F)(F)F)c2ccccc12"
measure = "melting point"
reported_result = "44 to 47 °C"


Asked: For the compound COc1ccc(N2C(=O)N(c3cccc(C(N)=O)c3)c3nc(Nc4ccccc4)ncc3C2C)c(F)c1 (stereo not given) , what melting point is on record?
Given back: 282 to 286 °C

Asked: I am curious: what melting point value has been reported for CCCC(CCNC(=O)CC#N)NC(=O)CC#N (stereo not given) ?
Given back: 141 °C

Asked: Consider the compound shown here: O=C1NCCn2c1nc1ccccc12 What is its recorded melting point?
Given back: > 250 °C

Data origin, for the record: a melting point compilation (Tetko et al.; mined from patent text by program, amines drawn as free bases though some values may be those of a salt)
